Assignment: determine reported MIC50 for the given compounds.
# System: B. anthracis
# Test Description: microbe, parasite or virus in culture
# Assay type: cell-based
# Condition Description: Bacillus anthracis
The answer is to be given in µg/mL; state only the numeric part.

Provide one value: measured MIC50 of `O=C(O)c1cn(C2CC2)c2cc(N3CCNCC3)c(F)cc2c1=O` 0.12

Provide one value: measured MIC50 of `C[C@H]1c2cccc(O)c2C(=O)C2=C(O)[C@]3(O)C(=O)C(C(N)=O)=C(O)[C@@H](N(C)C)[C@@H]3[C@@H](O)[C@@H]21` 0.03

Provide one value: measured MIC50 of `C[C@H]1COc2c(N3CCN(C)CC3)c(F)cc3c(=O)c(C(=O)O)cn1c23` 0.12

Provide one value: measured MIC50 of `C[C@@H](O)[C@H]1C(=O)N2C(C(=O)O)=C(SCCN=CN)C[C@H]12` 0.06
